# subject-of-test: WT B‐RAF (Homo sapiens, UniProt P15056, V600E)
# Construct: gene BRAF; overexpressed in HEK293 cells, immunoprecipitated
# Sequence (P15056 2-766 V600E): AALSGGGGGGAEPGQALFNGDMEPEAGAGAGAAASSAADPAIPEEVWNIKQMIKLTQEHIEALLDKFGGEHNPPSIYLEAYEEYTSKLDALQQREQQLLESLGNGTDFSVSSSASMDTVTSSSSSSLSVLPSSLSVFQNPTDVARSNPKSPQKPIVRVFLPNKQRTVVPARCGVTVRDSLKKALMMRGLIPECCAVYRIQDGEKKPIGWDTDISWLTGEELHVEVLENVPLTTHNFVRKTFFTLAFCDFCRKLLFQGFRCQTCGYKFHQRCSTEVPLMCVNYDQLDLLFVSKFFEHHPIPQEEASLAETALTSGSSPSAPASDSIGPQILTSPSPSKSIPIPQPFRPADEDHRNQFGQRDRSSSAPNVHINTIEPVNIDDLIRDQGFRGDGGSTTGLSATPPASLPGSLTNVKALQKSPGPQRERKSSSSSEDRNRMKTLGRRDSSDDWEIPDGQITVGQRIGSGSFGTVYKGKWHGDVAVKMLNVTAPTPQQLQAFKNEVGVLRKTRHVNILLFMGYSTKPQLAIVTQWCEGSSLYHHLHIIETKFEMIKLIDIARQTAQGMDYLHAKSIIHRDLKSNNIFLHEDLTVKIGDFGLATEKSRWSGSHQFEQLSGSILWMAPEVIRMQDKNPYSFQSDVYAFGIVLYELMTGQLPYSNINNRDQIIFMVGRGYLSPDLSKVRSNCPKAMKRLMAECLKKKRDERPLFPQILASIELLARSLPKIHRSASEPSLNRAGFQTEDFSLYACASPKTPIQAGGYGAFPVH
# method: TR-FRET kinase assay, MEK1 (K97R) substrate
# Format: biochemical
# assay-conditions: read-out: BGB-283 IC50 (nM) / 1 h
measurement-kind: IC50 (nM)
Please give a number only; it is taken to be in nM.

*Q* Identify the measured IC50 of O=C1CCc2c(Oc3ccc4c(c3)[C@@H]3[C@H](O4)[C@H]3c3nc4ccc(C(F)(F)F)cc4[nH]3)ccnc2N1 for WT B‐RAF (Homo sapiens, UniProt P15056, V600E).
*A* 49

* * *

# subject-of-test: WT B‐RAF (Homo sapiens)
# Construct: gene BRAF; overexpressed in HEK293 cells, immunoprecipitated
# method: TR-FRET kinase assay, MEK1 (K97R) substrate
# Type: biochemical
# assay-conditions: read-out: BGB-283 IC50 (nM) / 1 h
measurement-kind: IC50 (nM)
Please give a number only; it is taken to be in nM.

*Q* What value of measured IC50 is listed for O=C1CCc2c(Oc3ccc4c(c3)[C@@H]3[C@H](O4)[C@H]3c3nc4ccc(C(F)(F)F)cc4[nH]3)ccnc2N1 ?
*A* 2310

* * *

# subject-of-test: WT B‐RAF (Homo sapiens, UniProt P15056, V600E)
# Construct: gene BRAF; overexpressed in HEK293 cells, immunoprecipitated
# method: TR-FRET kinase assay, MEK1 (K97R) substrate
# Assay type: biochemical
# assay-conditions: 1 mM ATP; 1 h pre-incubation; room temperature; time-dependent inhibition (6 h and 24 h pre-incubation also tested); read-out: Compound C IC50 (nM) / 1 h
measurement-kind: IC50 (nM)
Please give a number only; it is taken to be in nM.

*Q* What value of measured IC50 is listed for c1cc(-c2cnn3cc(-c4ccc(OCCN5CCCCC5)cc4)cnc23)ccn1 ?
*A* 1.6

* * *

# subject-of-test: EGFR (Homo sapiens, UniProt P00533)
# Sequence (P00533 25-1210): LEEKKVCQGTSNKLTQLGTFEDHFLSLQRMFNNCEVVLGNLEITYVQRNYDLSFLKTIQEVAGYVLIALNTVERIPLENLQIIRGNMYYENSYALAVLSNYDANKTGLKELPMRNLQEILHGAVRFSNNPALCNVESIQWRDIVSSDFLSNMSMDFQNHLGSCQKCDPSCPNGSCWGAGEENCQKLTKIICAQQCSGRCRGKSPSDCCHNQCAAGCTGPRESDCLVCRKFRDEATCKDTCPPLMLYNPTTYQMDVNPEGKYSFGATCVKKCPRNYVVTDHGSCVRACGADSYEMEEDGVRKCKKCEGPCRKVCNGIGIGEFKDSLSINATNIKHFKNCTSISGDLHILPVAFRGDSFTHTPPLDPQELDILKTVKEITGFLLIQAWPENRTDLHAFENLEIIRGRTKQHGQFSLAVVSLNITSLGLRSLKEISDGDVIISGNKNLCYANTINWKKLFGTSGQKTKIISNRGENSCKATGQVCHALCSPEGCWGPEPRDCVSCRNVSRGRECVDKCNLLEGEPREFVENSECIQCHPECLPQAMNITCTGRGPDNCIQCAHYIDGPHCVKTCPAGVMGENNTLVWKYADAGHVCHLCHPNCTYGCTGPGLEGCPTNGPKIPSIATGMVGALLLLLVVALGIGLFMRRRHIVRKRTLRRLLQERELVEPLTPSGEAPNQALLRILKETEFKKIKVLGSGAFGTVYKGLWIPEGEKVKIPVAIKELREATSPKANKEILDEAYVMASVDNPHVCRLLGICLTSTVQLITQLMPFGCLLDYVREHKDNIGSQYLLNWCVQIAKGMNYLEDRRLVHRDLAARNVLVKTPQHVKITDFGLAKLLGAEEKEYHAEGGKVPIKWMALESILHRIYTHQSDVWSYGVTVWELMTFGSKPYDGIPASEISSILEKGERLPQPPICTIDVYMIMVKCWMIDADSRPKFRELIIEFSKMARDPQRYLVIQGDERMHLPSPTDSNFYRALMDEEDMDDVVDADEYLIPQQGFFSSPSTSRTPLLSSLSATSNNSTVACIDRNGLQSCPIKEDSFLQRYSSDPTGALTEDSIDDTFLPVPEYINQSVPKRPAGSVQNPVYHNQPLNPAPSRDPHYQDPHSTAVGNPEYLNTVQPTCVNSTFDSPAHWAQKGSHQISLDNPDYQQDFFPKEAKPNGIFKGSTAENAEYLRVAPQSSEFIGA
measurement-kind: pIC50
Scale explanation: pIC50 corresponds to minus log10 of a concentration expressed in moles per litre.

*Q* What value of measured pIC50 is listed for c1cc(-c2cnn3cc(-c4ccc(OCCN5CCCCC5)cc4)cnc23)ccn1 ?
*A* 5.90

* * *

# subject-of-test: WT C‐RAF (Homo sapiens)
# Construct: gene RAF1; overexpressed in HEK293 cells, immunoprecipitated
# Sequence (P04049 whole entry): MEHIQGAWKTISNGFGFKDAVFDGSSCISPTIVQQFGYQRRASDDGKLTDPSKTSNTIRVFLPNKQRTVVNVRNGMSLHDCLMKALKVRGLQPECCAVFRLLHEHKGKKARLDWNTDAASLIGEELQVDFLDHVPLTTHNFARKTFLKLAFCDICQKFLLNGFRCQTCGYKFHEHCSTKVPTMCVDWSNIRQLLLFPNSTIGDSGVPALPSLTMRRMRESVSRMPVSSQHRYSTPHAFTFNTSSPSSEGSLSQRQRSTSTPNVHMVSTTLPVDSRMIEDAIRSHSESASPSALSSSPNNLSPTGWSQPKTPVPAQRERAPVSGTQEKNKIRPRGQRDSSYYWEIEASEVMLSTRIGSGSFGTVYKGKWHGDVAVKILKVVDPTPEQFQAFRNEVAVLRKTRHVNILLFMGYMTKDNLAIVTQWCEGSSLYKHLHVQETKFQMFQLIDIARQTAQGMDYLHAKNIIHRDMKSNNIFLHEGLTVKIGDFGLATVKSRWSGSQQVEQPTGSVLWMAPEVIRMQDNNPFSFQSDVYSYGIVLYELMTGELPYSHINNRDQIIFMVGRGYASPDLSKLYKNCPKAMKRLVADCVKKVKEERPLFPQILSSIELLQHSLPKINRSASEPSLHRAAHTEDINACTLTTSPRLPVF
# method: TR-FRET kinase assay, MEK1 (K97R) substrate
# Type: biochemical
# assay-conditions: read-out: BGB-283 IC50 (nM) / 1 h
measurement-kind: IC50 (nM)
Please give a number only; it is taken to be in nM.

*Q* What value of measured IC50 is listed for O=C1CCc2c(Oc3ccc4c(c3)[C@@H]3[C@H](O4)[C@H]3c3nc4ccc(C(F)(F)F)cc4[nH]3)ccnc2N1 [BGB‐283] ?
*A* 122
